# Tested on: ProfilerPro Kinase Selectivity Assay Kit kinases
# Assay type: biochemical
# assay_conditions: TAK1; 1 μM compound concentration
quantity_name: POC (Percent of control) TAK1 (POC)
Write it as a number; the unit POC goes unstated.

{"columns": ["compound", "POC (Percent of control) TAK1 (POC)"],
 "data": [
  ["COc1ccc(Nc2ncccc2-c2ncnc3[nH]cnc23)cn1 [Example 20]", 99],
  ["COc1ccc(Nc2ncc(CN3CCN(C(C)=O)CC3)cc2-c2nc(C)nc3[nH]cnc23)cn1 [Example 89]", 93],
  ["Cc1cnc(Nc2cccc3[nH]ccc23)c(-c2nc(C)nc(N)n2)c1 [Example 46]", 98]
]}

[Q] Looking for the measured POC (Percent of control) TAK1 of COc1ccc(Nc2ncccc2-c2nc(C)nc3[nH]cnc23)cn1 [Example 58] , can you help?
[A] 107

[Q] Query: POC (Percent of control) TAK1; subject: Cc1nc(N)nc(-c2cc(CN3CCN(S(C)(=O)=O)CC3)cnc2Nc2cccc(O)c2)n1 [Example 30]
[A] 99

Value source: patent US8772480B2
